- SUBJECT OF TEST: soybean lipoxygenase (LOX) (Glycine max, UniProt P08170)
- Construct: purchased Sigma-Aldrich
- Sequence (P08170 1-839): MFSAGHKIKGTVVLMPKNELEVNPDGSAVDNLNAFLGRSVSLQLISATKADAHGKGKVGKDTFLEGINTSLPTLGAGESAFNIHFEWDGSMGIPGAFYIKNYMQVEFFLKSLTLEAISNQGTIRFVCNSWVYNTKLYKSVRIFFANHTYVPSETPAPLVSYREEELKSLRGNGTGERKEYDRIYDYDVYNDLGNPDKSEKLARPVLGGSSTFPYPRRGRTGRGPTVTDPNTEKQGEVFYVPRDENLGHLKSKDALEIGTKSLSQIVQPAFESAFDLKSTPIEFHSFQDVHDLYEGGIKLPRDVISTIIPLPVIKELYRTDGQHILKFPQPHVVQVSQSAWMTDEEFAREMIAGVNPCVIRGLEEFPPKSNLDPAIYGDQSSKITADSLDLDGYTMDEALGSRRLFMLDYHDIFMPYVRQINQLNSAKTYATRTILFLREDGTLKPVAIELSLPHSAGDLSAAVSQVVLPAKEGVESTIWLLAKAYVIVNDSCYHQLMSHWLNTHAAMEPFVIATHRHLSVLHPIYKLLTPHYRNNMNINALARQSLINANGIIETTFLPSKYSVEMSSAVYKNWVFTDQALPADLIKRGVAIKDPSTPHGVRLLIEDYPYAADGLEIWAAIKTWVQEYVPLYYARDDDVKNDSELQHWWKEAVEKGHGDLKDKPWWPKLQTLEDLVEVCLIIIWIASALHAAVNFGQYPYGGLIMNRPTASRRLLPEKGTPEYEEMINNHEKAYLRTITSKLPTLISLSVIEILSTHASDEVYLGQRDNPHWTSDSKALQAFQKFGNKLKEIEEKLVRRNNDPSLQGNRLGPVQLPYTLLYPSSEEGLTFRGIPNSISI
- ASSAY REMARKS: LOX inhibition study in vitro
- Type: biochemical
- CONDITION LABEL: 1 × 10^−4 M

[
  {
    "MOLECULE": "COc1cc(NC(C)CCCNC(=O)/C=C/c2ccccc2)c2ncccc2c1 (centres unmarked)",
    "MEASUREMENT UNITS": "%",
    "inhibition at 100 µM": 19
  },
  {
    "MOLECULE": "COc1ccc(/C=C/C(=O)NCCCC(C)Nc2cc(OC)cc3cccnc23)cc1 (centres unmarked)",
    "MEASUREMENT UNITS": "%",
    "inhibition at 100 µM": 45
  },
  {
    "MOLECULE": "COc1cc(NC(C)CCCNC(=O)/C=C/c2cc(OC)c(OC)c(OC)c2)c2ncccc2c1 (centres unmarked)",
    "MEASUREMENT UNITS": "%",
    "inhibition at 100 µM": 26
  },
  {
    "MOLECULE": "COc1cc(NC(C)CCCNC(=O)/C=C/c2ccccc2F)c2ncccc2c1 (centres unmarked)",
    "MEASUREMENT UNITS": "%",
    "inhibition at 100 µM": 10
  },
  {
    "MOLECULE": "COc1cc(NC(C)CCCNC(=O)/C=C/c2ccc(Cl)cc2)c2ncccc2c1 (centres unmarked)",
    "MEASUREMENT UNITS": "%",
    "inhibition at 100 µM": 17
  },
  {
    "MOLECULE": "COc1cc(NC(C)CCCNC(=O)/C=C/c2ccc3c(c2)OCO3)c2ncccc2c1 (centres unmarked)",
    "MEASUREMENT UNITS": "%",
    "inhibition at 100 µM": 34
  },
  {
    "MOLECULE": "COc1cc(NC(C)CCCNC(=O)/C(C)=C/c2ccccc2)c2ncccc2c1 (centres unmarked)",
    "MEASUREMENT UNITS": "%",
    "inhibition at 100 µM": 14
  },
  {
    "MOLECULE": "COc1cc(NC(C)CCCNC(=O)/C=C/c2cc(C(F)(F)F)cc(C(F)(F)F)c2)c2ncccc2c1 (centres unmarked)",
    "MEASUREMENT UNITS": "%",
    "inhibition at 100 µM": 43
  },
  {
    "MOLECULE": "COc1cc(NC(C)CCCNC(=O)/C=C/c2ccc(OC)c(OC)c2)c2ncccc2c1 (centres unmarked)",
    "MEASUREMENT UNITS": "%",
    "inhibition at 100 µM": 43
  },
  {
    "MOLECULE": "COc1cc(NC(C)CCCNC(=O)NNC(=O)/C=C/c2ccccc2)c2ncccc2c1 (centres unmarked)",
    "MEASUREMENT UNITS": "%",
    "inhibition at 100 µM": 36
  },
  {
    "MOLECULE": "COc1cc(NC(C)CCCNC(=O)/C=C/c2cccc(C(F)(F)F)c2)c2ncccc2c1 (centres unmarked)",
    "MEASUREMENT UNITS": "%",
    "inhibition at 100 µM": 19
  }
]
